The entries below are paired with their reported pIC50.
- system name: Recombinant human HSD17B13 enzyme (Homo sapiens, UniProt Q7Z5P4)
- Sequence (Q7Z5P4 20-300): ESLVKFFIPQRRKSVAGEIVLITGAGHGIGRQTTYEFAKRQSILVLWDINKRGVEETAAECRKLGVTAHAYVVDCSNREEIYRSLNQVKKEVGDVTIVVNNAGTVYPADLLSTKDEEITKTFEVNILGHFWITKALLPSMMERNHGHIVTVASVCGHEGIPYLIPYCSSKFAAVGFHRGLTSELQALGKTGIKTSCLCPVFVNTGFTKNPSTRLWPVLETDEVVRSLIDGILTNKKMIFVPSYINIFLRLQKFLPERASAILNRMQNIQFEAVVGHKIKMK
- measurement description: HSD17b13 NAD(P)H-Glo biochemical assay
- condition info: 50 μM estradiol, 1 mM NAD+, 37° C. for 3 hours; read-out: HSD17β13 IC50
pIC50: −log10 of the molar value.

Recorded pIC50, per entry:
Oc1c(F)cc2nnn(-c3ccc(N4CCOC[C@H]4Cc4ccccc4)cc3)c2c1F :: 6.00 to 7.00
Cn1nc(-c2cc(C(F)(F)F)c(F)c(O)c2F)c2cnc(N3CCC(O)(Cn4cccn4)CC3)nc21 :: ≥ 7.00
Cn1nc(-c2cc(C(F)(F)F)c(F)c(O)c2F)c2cnc(N3CCOC[C@H]3C(=O)N3CCCCC3)nc21 :: ≥ 7.00

Below: the item to evaluate.
[in] Need pIC50 of Cn1nc(-c2cc(C(F)(F)F)c(F)c(O)c2F)c2cnc(N3CC[C@H]3Cc3ccccc3)nc21 (single isomer, unassigned) , thanks.
[out] ≥ 7.00

FYI, the data here is from patent US20240368127A1.
